Each record here notes measured relative binding ratio.
Assayed target: T1, Soluble CDCP1 extracellular domain (CDCP1-ECD) (SEQ ID NO:30) fused to Streptavidin Binding Protein (SBP) (human, UniProt Q9H5V8 30-663)
T1 construct: also called SBP-CDCP1-ECD
T1 sequence: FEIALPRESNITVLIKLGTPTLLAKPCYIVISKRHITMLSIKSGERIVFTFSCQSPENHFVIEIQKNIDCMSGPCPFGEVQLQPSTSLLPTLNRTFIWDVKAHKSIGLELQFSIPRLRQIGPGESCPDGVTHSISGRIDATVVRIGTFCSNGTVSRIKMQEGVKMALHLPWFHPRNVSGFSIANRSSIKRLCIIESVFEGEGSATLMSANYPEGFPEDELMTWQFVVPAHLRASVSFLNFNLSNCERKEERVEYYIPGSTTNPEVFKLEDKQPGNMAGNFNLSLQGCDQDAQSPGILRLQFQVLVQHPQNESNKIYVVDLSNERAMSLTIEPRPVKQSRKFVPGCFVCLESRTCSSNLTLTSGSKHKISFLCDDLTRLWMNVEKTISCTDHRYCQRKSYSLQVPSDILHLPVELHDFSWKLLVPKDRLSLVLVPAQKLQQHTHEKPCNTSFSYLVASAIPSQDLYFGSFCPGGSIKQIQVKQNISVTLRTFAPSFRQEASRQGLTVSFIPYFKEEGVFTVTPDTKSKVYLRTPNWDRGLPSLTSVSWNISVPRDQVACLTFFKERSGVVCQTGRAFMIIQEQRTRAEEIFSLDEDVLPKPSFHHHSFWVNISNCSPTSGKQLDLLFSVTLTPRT
Assay details: ELISA on captured SBP-CDCP1-ECD, ratio relative to chimeric CUB4 (chHC4)
Respond using a number only.

# Binder, Value observed
records = [
    ("hHC4-a / hLC4-b (antibody, V domains shown) VH: EVQLVESGGGLVKPGGSLRLSCAASGFTFNSYGMSWVRQAPGKGLEWVSTISSGGSYTYYPDSVKGRFTISRDNAKNSLYLQMNSLRAEDTAVYYCARHPDYDGVWFAYWGQGTLVTVSS VL: EIVLTQSPATLSLSPGERATLSCSVSSSVFYVHWYQQKPGQAPRLLIYDTSKLASGIPARFSGSGSGTDYTLTISSLEPEDFAVYYCQQWNSNPPTFGGGTKVEIK", 0.36),
]

Now look at this entry.
Sample hHC4-K2 / hLC4-K (antibody, V domains shown) VH: EVQLVESGGGLVKPGGSLRLSCAASGFTFNSYGMSWVRQAPGKGLEWVSSISSGGSYTYYADSVKGRFTISRDNAKNSLYLQMNSLRAEDTAVYYCARHPDYDGVWFAYWGQGTLVTVSS VL: EIVLTQSPATLSLSPGERATLSCRASSSVFYLHWYQQKPGQAPRLWIYDTSKLASGIPARFSGSGSGTDFTLTISSLEPEDFAVYYCQQWNSNPPTFGGGTKVEIK ; relative binding ratio observed: 0.3
